# Test Details: Protein binding in rat plasma
# Format: ADME, cell-free
# Stated Conditions: read-out: PB (converted)
Experimental Readout: fraction unbound

input_smiles=CCCN1CCO[C@H](c2cccc(O)c2)C1 test_value=0.59

----------
# Tested On: 5-hydroxytryptamine receptor 2A (Rattus norvegicus, UniProt P14842)
# Sequence (P14842 whole entry): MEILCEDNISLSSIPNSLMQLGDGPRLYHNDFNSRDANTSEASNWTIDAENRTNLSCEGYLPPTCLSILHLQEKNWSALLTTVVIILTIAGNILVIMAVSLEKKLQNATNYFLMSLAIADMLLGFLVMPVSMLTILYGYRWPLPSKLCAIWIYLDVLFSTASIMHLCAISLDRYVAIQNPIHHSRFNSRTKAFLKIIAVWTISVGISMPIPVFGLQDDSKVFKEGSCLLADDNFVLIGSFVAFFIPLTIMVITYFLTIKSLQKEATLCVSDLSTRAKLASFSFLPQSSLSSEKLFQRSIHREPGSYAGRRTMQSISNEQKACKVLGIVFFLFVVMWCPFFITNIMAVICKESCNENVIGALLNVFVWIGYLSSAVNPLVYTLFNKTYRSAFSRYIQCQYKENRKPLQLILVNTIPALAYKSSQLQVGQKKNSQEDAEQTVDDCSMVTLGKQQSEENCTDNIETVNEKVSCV
# Test Details: Binding affinity to rat 5HT2A receptor
Experimental Readout: Ki (nM)

input_smiles=CCCN1CCO[C@H](c2cccc(O)c2)C1 experimental_readout=Ki readout_unit=nM test_value=970

----------
# Test Details: Apparent permeability across Caco-2 cells at 1 uM
# Format: ADME, cell-based
# Stated Conditions: human
Experimental Readout: Papp at 1 µM (×10⁻⁶ cm/s)

input_smiles=CCCN1CCO[C@H](c2cccc(O)c2)C1 experimental_readout="Papp at 1 µM" readout_unit="×10⁻⁶ cm/s" test_value=38
